# Test system: M14 melanoma
# METHOD_NOTES: NCI-60 one-dose screen, 48 h
# TEST_SETTINGS: 10 µM unless noted
The panel holds about 83,000 compounds, 20% with a hit somewhere; the sample as a whole holds those more often. The source made the active and inactive calls. Rule for the calls: active = growth percent below 10; inactive = the rest.
Just give me one of these, please: active, inactive

Task item: # lookup: test call for CCCCC(=O)OC1CCCCC1C (stereo not given)
Reply: inactive

Task item: # lookup: test call for `COc1ccc2c(c1)c(-c1nc(-c3c[nH]c4ncccc34)cs1)cn2CCN`
Reply: inactive

Task item: # lookup: test call for `COC1=C(Br)C(=O)C(OC)=C(Br)C1=O`
Reply: inactive

Task item: # lookup: test call for `COc1cc2nc(Cl)nc(Nc3cccc(C(=O)/C=C/c4ccccc4)c3)c2cc1OC`
Reply: inactive

Task item: # lookup: test call for `N=C(N)c1ccc(S(N)(=O)=O)cc1`
Reply: inactive

Task item: # lookup: test call for `C/C(=C(/c1ccccc1)c1ccc(N2C(=O)c3cccc4c(NCc5ccccc5)ccc(c34)C2=O)cc1)c1ccccc1`
Reply: inactive

Task item: # lookup: test call for `Fc1ccc(Nc2ccc3c(OCCCN4CCOCC4)cccc3n2)cc1F`
Reply: inactive

Task item: # lookup: test call for `COc1ccc(/C=C(\C#N)c2cc3ccccc3n2C(C)=O)cc1`
Reply: inactive

Task item: # lookup: test call for `Fc1ccc(Nc2nnc(-c3ccc(Cl)cc3)o2)cc1`
Reply: inactive

Task item: # lookup: test call for `C=C(C)[C@@H]1CC[C@]2(C(=O)N3CCN(C)CC3)CC[C@]3(C)[C@H](CC[C@@H]4[C@@]5(C)C/C(=C/c6ccc(C(F)(F)F)cc6)C(=O)C(C)(C)[C@@H]5CC[C@]43C)[C@@H]12`
Reply: inactive

Task item: # lookup: test call for `Nc1c(C(=O)Nc2cccc3ccccc23)sc2nc3c(cc12)CCCC3`
Reply: active

Task item: # lookup: test call for `C=C(C)[C@@H]1CC[C@]2(CN)CC[C@]3(C)[C@H](CC[C@@H]4[C@@]5(C)CCC(=O)NC(C)(C)[C@@H]5CC[C@]43C)[C@@H]12`
Reply: inactive

Task item: # lookup: test call for `C#CCn1c2c(c3ccccc31)C[C@]1(C)[C@H]3CC[C@@H]4[C@@H]5C(=CCC[C@H]5C(=C)C)CC[C@@]4(C)[C@]3(C)CC[C@H]1C2(C)C`
Reply: inactive

Task item: # lookup: test call for `CC(=O)Oc1ccccc1C(=O)/C=C/c1cccc([N+](=O)[O-])c1`
Reply: inactive

Task item: # lookup: test call for `C=C(C)[C@@H]1CC[C@]2(C(=O)O)CC[C@]3(C)[C@H](CC[C@@H]4[C@@]5(C)C/C(=C/c6cccc(I)c6)C(=O)C(C)(C)[C@@H]5CC[C@]43C)[C@@H]12`
Reply: inactive

Task item: # lookup: test call for `Cc1cc(C)nc(NC(N)=NCCc2ccccc2)n1`
Reply: inactive

Task item: # lookup: test call for `O=S(=O)(NCCNc1cc(-c2cn(-c3ccccc3)nc2-c2cccc(O)c2)ccn1)c1ccc(F)cc1`
Reply: inactive

Task item: # lookup: test call for `CCc1nnc(NC(=O)c2ccoc2COc2ccccc2)s1`
Reply: inactive

Task item: # lookup: test call for `Cn1cc(-c2nc(-c3cn(C)c4ncccc34)cs2)c2cc(F)ccc21`
Reply: inactive

Task item: # lookup: test call for CC1(c2ccccc2)OC1C(=O)O (stereo not given)
Reply: inactive

This collection of values is drawn from PubChem BioAssay (NCI).
